Hey, just so you know, these numbers are from patent US20250002565A1.

ASSAY_SYSTEM: T1, 15-mer peptide LGIWGCSGKLICTTT (SEQ ID NO:1) (HIV, not fully specified; cysteine pairing not given here)
T1 construct: also called U1731DB060-1; U173DB060-1
T1 peptide: LGIWGCSGKLICTTT
ASSAY_PROCEDURE: indirect ELISA; 15-mer peptide coated 1 ug/ml in DTT; antibody at 12 ng/ml
No end group written: not given here.
RESULT_TYPE: ELISA OD (OD)
The reply should be a number in OD, with the unit left off.

Value of measured ELISA OD for the entry HIV-binding peptide #5 (antibody, human IgG1, kappa, V domains shown, Recombinant, fully human immunoglobulin; also called U1205DB020-5) VH: QVQLQESGGGVVQPGRSLRLSCAASGFTFSSYAIHWVRQAPGKGLEWVAVISYDGSNRYYADSVKGRFTISRDNSKNTLYLQMNSLRPEDTAVYYCARDRFSAVASTPTYHNYFYMDVWGKGTTVTVSS VL: DIQMTQSPSSLSASVGDRVTITCQASQDVSNYLAWYQQKPGQAPRLLIYDASNLETGVPSRFSGSGSGTDFTLTISSLQPEDLATYYCQQYDNTPYTFGQGTKLEIKR : 0.082

Value of measured ELISA OD for the entry HIV-binding peptide #7 (antibody, human IgG1, kappa, V domains shown, also called U1205DB020-7) VH: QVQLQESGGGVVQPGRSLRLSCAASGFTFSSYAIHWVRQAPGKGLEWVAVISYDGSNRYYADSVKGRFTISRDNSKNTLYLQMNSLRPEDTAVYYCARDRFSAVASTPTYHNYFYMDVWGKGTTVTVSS VL: DIQMTQSPSSLSASVGDRVTITCQASQDVSNYLAWYQQKPGQAPRLLIYDASNLETGVPSRFSGSGSGTDFTLTISSLQPEDLATYYCQQYDNLPYTFGQGTKLEIKR : 0.096

Value of measured ELISA OD for the entry HIV-binding peptide #2 (antibody, human IgG1, kappa, V domains shown, Recombinant, fully human immunoglobulin; also called U1205DB020-2) VH: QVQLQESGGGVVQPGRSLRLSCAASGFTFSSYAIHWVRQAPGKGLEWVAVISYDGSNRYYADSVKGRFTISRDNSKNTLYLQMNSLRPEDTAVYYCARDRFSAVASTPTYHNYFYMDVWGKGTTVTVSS VL: DIQMTQSPSSLSASVGDRVTITCQASQDINNYLAWYQQKPGQAPRLLIYDASNLETGVPSRFSGSGSGTDFTLTISSLQPEDLATYYCQQYDNTPYTFGQGTKLEIKR : 0.065

Value of measured ELISA OD for the entry HIV-binding peptide #4 (antibody, human IgG1, kappa, V domains shown, Recombinant, fully human immunoglobulin; also called U1205DB020-4) VH: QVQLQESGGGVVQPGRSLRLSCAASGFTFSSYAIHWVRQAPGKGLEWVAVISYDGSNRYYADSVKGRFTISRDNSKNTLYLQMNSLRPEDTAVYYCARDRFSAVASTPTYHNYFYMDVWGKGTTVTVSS VL: DIQMTQSPSSLSASVGDRVTITCQASQDINNYLAWYQQKPGQAPRLLIYDASNLETGVPSRFSGSGSGTDFTLTISSLQPEDLATYYCQQYDNLPYTFGQGTKLEIKR : 0.073

Value of measured ELISA OD for the entry HIV-binding peptide #1 (antibody, human IgG1, kappa, V domains shown, Recombinant, fully human immunoglobulin; also called U1205DB020-1) VH: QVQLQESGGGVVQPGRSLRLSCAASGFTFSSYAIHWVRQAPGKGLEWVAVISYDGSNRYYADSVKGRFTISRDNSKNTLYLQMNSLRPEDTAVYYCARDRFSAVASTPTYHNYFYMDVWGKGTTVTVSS VL: DIQMTQSPSSLSASVGDRVTITCQASQDVNNYLAWYQQKPGQAPRLLIYDASNLETGVPSRFSGSGSGTDFTLTISSLQPEDLATYYCQQYDNTPYTFGQGTKLEIKR : 0.08
